Data credit: PubChem BioAssay AID651658

molecular target: Fibroblast growth factor 22 (Homo sapiens) (UniProt Q9HCT0); experiment: binders of human FGF22 protein, primary screen, FGF22 synaptogenesis inhibitor project, biophysical, thermal shift, single point (AID 651658); settings: recombinant FGF22 thermal shift, SYPRO orange fluorescence; at 9.99 µM; percent of sucrose octasulfate shift, DMSO zero
Sequence (Q9HCT0 whole entry, looked up): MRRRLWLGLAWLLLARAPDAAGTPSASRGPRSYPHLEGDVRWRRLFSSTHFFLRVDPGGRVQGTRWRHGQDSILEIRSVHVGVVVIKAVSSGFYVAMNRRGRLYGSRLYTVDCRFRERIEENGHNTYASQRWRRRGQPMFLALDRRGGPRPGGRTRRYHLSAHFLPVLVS
Hit rate of the full screen: of about 340,000 compounds, about 5,100 (1.5%) were called active.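 The calls were made as follows: active = mean Tm shift, scaled 0 neutral to 100 positive control, at about 1.3% or above, every replicate too (limit read from the data); inconclusive = no clear call, values can overlap the other calls; inactive = the rest.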 Shown is part of a subset that was picked to be rich in actives.
Response enum: yes = active, no = inactive

Some entries whose results are on file:
> print(dat)
                               query.smiles  class.assignment
1         O=C(O)CSCC(=O)Nc1ccc(C(F)(F)F)cc1               yes
2  COc1ccc2c3c(n(C)c2c1)[C@H](CO)N(C(C)=O)CC31CCN(Cc2cccnc2)CC1                no
3  Cc1ccc(S(=O)(=O)Nc2ccc3c(c2)C(=O)N([C@H](C)CO)C[C@H](C)[C@@H](CN(C)C(=O)NC(C)C)OCCCC[C@@H](C)O3)cc1                no

Continue with the compound presented below.
Please state the recorded outcome for this compound: CCCNC(=O)C[C@@H]1CC[C@H]2[C@@H](COC[C@@H](O)CN2Cc2ccccc2F)O1 no
